Please go through the items and note down their %Inh.
# Test system: ACVR2A;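 also: KINOMEscan kinase panel screen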
# Condition Parameters: concentration: 1 μM, replicates: in singlicate; n = 1
Please state the figure in %; there is no need to write the unit.

// lookup %Inh for Cc1ccc(C(=O)Nc2ccc(Nc3ccnc4cc(-c5ccccn5)ccc34)cc2O)cc1.Cl [GW440146]
0

Same lookup for Cc1ccc(NC(=O)Nc2cccc(Cl)c2)cc1-c1ccc(C(=O)Nc2ccncc2)cc1 [GSK1398468] , please.
0

What would you report for O=C(O)COc1ncnc2cc(-c3ccc4[nH]ncc4c3)sc12 ?
4

One more compound: Cc1cc(-c2ccc3c(c2)CC[C@@H](N[C@@H](C)c2ccccc2)C3)cnc1N.Cl [GW412617]
0
